Taken from patent US7550469B2.

molecular target: cloned human dopamine D3 receptors (Homo sapiens); construct: expressed in transfected cells; membrane homogenate; assay: [N-Methyl-3H]Spiroperidol binding to cloned human dopamine D3 receptors (Protocol 1); settings: the 13th table, unit inferred; read-out: D3Ki
Sequence (P35462 whole entry): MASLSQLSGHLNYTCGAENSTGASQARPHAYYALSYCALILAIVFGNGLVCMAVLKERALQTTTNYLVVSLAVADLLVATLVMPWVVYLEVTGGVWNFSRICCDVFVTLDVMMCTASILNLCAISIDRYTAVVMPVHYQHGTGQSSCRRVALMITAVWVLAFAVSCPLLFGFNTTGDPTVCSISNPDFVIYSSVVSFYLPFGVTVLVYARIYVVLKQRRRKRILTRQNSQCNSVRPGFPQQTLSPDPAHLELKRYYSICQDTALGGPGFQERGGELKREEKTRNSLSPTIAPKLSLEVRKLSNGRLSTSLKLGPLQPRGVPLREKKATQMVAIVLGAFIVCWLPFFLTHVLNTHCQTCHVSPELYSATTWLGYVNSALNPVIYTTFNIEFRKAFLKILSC
pKi: −log10 of the molar value.
If the reported pKi equals or exceeds 8, assign Criterion met. If not, assign Criterion not met.

compound="O=C(NCCCCN1CCCN(c2csc3cc(F)ccc23)CC1)c1ccc2ccccc2c1 [822223G]" measurement_target="cloned human dopamine D3 receptors (Homo sapiens)" assigned_category="Criterion met"
compound=O=C(NCCCCCN1CCCN(c2csc3cc(F)ccc23)CC1)c1cnc(-c2cccnc2)s1 measurement_target="cloned human dopamine D3 receptors (Homo sapiens)" assigned_category="Criterion not met"
compound=O=C(NCCCCN1CCCN(c2csc3cc(C(F)(F)F)ccc23)CC1)c1cc2ccccc2s1 measurement_target="cloned human dopamine D3 receptors (Homo sapiens)" assigned_category="Criterion not met"
compound=Cc1nnsc1C(=O)NCCCCN1CCCN(c2csc3cc(F)ccc23)CC1 measurement_target="cloned human dopamine D3 receptors (Homo sapiens)" assigned_category="Criterion met"
compound=O=C(NCCCCN1CCCN(c2csc3cc(F)ccc23)CC1)c1cc(F)cc(F)c1 measurement_target="cloned human dopamine D3 receptors (Homo sapiens)" assigned_category="Criterion met"
compound=O=C(NCCCCN1CCCN(c2csc3cc(C(F)(F)F)ccc23)CC1)c1ccncc1 measurement_target="cloned human dopamine D3 receptors (Homo sapiens)" assigned_category="Criterion not met"
compound=O=C(NCCCCN1CCCN(c2csc3cc(F)ccc23)CC1)c1ccc2c(c1)S(=O)(=O)c1ccccc1C2=O measurement_target="cloned human dopamine D3 receptors (Homo sapiens)" assigned_category="Criterion met"
compound="O=C(NCCCCN1CCCN(c2csc3cc(F)ccc23)CC1)c1cc2ccccc2s1 [compound 822158]" measurement_target="cloned human dopamine D3 receptors (Homo sapiens)" assigned_category="Criterion met"

----------
Catalogue of Ki values
biological target: cloned human dopamine D3 receptors (Homo sapiens); construct: expressed in transfected cells; membrane homogenate; test: [N-Methyl-3H]Spiroperidol binding to cloned human dopamine D3 receptors (Protocol 1); details: the 14th table; read-out: D3 Ki
MEASURED QUANTITY: Ki (nM)

compound=O=C(NCCCCCN1CCN(c2csc3cc(C(F)(F)F)ccc23)CC1)c1cccc(F)c1 quantitative_readout=7.8
compound="O=C(NC(CO)CCCN1CCN(c2csc3cc(C(F)(F)F)ccc23)CC1)c1ccc2c(c1)S(=O)(=O)c1ccccc1C2=O (centres unmarked)" quantitative_readout=186
compound=O=C(N[C@@H](CO)CCCN1CCN(c2csc3cc(C(F)(F)F)ccc23)CC1)c1ccc(Br)cc1 quantitative_readout=129
compound="O=C(NC(CO)CCCN1CCN(c2csc3cc(C(F)(F)F)ccc23)CC1)c1ccc(Cl)cc1 (centres unmarked)" quantitative_readout=245
compound=COc1cc(OC)cc(C(=O)NCCCCCCN2CCN(c3csc4cc(C(F)(F)F)ccc34)CC2)c1 quantitative_readout=4.9
compound=O=C(NCCCCCN1CCN(c2csc3cc(C(F)(F)F)ccc23)CC1)c1cccc2[nH]ccc12 quantitative_readout=6.44
compound=O=C(NCCCCCN1CCN(c2csc3cc(F)ccc23)CC1)c1ccc(OC(F)(F)F)cc1 quantitative_readout=4.56
compound=COc1ccc2[nH]c(C(=O)NCCCCCN3CCN(c4csc5cc(C(F)(F)F)ccc45)CC3)cc2c1 quantitative_readout=13.9
compound=Cc1ccc(C(=O)N[C@H](CO)CCCN2CCN(c3csc4cc(C(F)(F)F)ccc34)CC2)cc1 quantitative_readout=198
compound=O=C(N[C@H](CO)CCCN1CCN(c2csc3cc(C(F)(F)F)ccc23)CC1)c1ccc2c(c1)S(=O)(=O)c1ccccc1C2=O quantitative_readout=124
compound=O=C(N[C@@H](CO)CCCN1CCN(c2csc3cc(C(F)(F)F)ccc23)CC1)c1ccc(-c2ccccc2)cc1 quantitative_readout=192
compound="CCn1cc(C(=O)NC(CO)CCCN2CCN(c3csc4cc(C(F)(F)F)ccc34)CC2)c(=O)c2ccc(C)nc21 (centres unmarked)" quantitative_readout=137
compound=O=C(NCCCCCCN1CCN(c2csc3cc(C(F)(F)F)ccc23)CC1)c1cccc(F)c1 quantitative_readout=2.7
compound=O=C(N[C@H](CO)CCCN1CCN(c2csc3cc(C(F)(F)F)ccc23)CC1)c1cc2ccccc2s1 quantitative_readout=180
